- target_or_test_system: human Claudin 18.2 (hCLDN18.2) (human, UniProt P56856-2 1-261)
- assay_procedure: cell-based or functional assay
ADCC EC50 for assorted binders
The answer is to be given in µg/mL; state only the numeric part.

ch-239E9 (antibody, V domains shown, also called chimeric antibody of clone 239E9) VH: QVQLQQSGPELVRPGVSVKISCKGSSYTFTDYTMHWVKQSHAKSLEWIGFIGVYYGNTNYNQKFKGKATMTVDKSSSTAYMELARLTSEDSAVYYCARIGRGNAMDYWGQGTSVTVSS VL: DIVMTQSPSSLTVTAGEKVTMSCKSSQSLLNSGNQKNYLTWYQQKPGQPPKLLIYWASTRESGVPDRFTGSGSGTDFTLTISSVQAEDLAVYNCQNAYSYPFTFGSGTKLEIK = 0.021
ch-37G8 (antibody, V domains shown, also called chimeric antibody of clone 37G8) VH: EVQLQQSGPVLVKPGASVKMSCKASGYTFSDYHMNWVKQSHGKSLEWVGLINPYNGGIRFNQKFKGKATLTVDKSSSTAYMELNSLTSEDSAVYYCATIYYGNSFAYWGQGTLVTVSA VL: DIVMTQSPSSLTVTAGEKVTLTCKSGQSLLNSGNQKNYLTWYQQKPGQPPKLLIYWASTRESGVPDRFTGSGSGTDFTLTISGVQAEDLAVYYCQNDYFYPYTFGGGTKLEIK = 0.022

Next:
Prompt: # lookup: ADCC EC50 of ch-40G7 (antibody, V domains shown, also called chimeric antibody of clone 40G7) VH: QVQLQQPGTELVKPGASVKLSCKASGYTFTNYWMHWVKQRPGHGLEWIGMIHPNSYSTNYNEKFRSKATLTVDKSSSTAYMQLSSLTSEDSAVYYCTRIYYGNAMDYWGQGTSVTVSS VL: DIVMTQSPSSLTVTAGERVTMSCKSSQSLFNSGNQKNYLTWYHQKPGQPPKLLIYWAFTRESGVPDRFTGSGSGTDFTLTIRSVQAEDLAVYYCQNDYSYPFTFGSGTKLEIK
Response: 0.018
